Data origin: ChEMBL document CHEMBL1125560

test: Partition coefficient at pH 7.4 between chloroform and water as a measure of lipid solubility.
assay-readout: pKa
The reply should be a number, written without any unit.

Query: Could you please provide reported pKa for `Cc1cn(-c2cccc(OCCOS(N)(=O)=O)c2)cn1.Cl` ? Thanks!
Response: 8.96

Query: Find the measured pKa of `Cl.NS(=O)(=O)Oc1ccc(-n2ccnc2)cc1` and report it.
Response: 8

Query: // fetch pKa given entry `Cc1nccn1-c1cccc(OS(N)(=O)=O)c1.Cl`
Response: 7.99

Query: Indicate its recorded pKa; the compound in question is `Cl.NS(=O)(=O)OCCOc1cccc(-n2ccnc2)c1`
Response: 8.91

Continuing:
Query: Provide measured pKa value, entry: `Cl.NS(=O)(=O)Oc1cccc(-n2ccnc2)c1`
Response: 9.05

Query: Output pKa of `Cl.NS(=O)(=O)OCCOc1ccc(-n2ccnc2)cc1`
Response: 9.05

Query: Query pKa for `Cc1cn(-c2cccc(OS(N)(=O)=O)c2)cn1.Cl`
Response: 8.08

----------
test: Partition coefficient at pH 7.4 between chloroform and water as a measure of lipid solubility.; assay type: ADME; settings: read-out: pKa1
assay-readout: pKa
// response body must contain only the number

Some solved entries appear below for comparison.
Query: Hello, please tell me recorded pKa for this one: `Cl.NS(=O)(=O)OCCOc1cccc(-n2ccnc2)c1`
Response: 5.71

Query: Note pKa for the compound shown: `Cl.NS(=O)(=O)Oc1ccc(-n2ccnc2)cc1`
Response: 5.54

Query: Provide pKa value for the following compound: `Cl.NS(=O)(=O)OCCOc1ccc(-n2ccnc2)cc1`
Response: 5.98

Query: Supply recorded pKa for `Cl.NS(=O)(=O)OCCCOc1ccc(-n2ccnc2)cc1` here.
Response: 6.09

Query: Identify measured pKa associated with `Cl.NS(=O)(=O)Oc1cccc(-n2ccnc2)c1`
Response: 5.4

Now for another entry.
Query: Supply recorded pKa for `Cc1cn(-c2cccc(OCCOS(N)(=O)=O)c2)cn1.Cl` here.
Response: 6.34

----------
assay: Solubility in water at pH 5.0; assay type: physicochemical
A collection of molecules and their measured solubility
Provide the reading as a plain figure in µg/mL.

Query: Provide solubility value for the following molecule: `Cl.NS(=O)(=O)OCCCOc1ccc(-n2ccnc2)cc1`
Response: 1600

Query: Specify measured solubility for `Cc1cn(-c2cccc(OCCOS(N)(=O)=O)c2)cn1.Cl` .
Response: 4900

Query: Note down solubility recorded for `Cl.NS(=O)(=O)Oc1cccc(-n2ccnc2)c1`
Response: 38000

Further cases:
Query: Identify measured solubility associated with `Cc1cn(-c2cccc(OS(N)(=O)=O)c2)cn1.Cl`
Response: 6300

----------
test: Partition coefficient of the compound at pH 7.4 between chloroform and water as a measure of lipid solubility.; type: ADME; conditions: read-out: pKa2
assay-readout: pKa
Give a plain numeric answer without units written out.

Query: Read the entry `Cc1nccn1-c1cccc(OCCOS(N)(=O)=O)c1.Cl` and write its reported pKa.
Response: 8.99

Query: Consider the compound `Cl.NS(=O)(=O)OCCCOc1ccc(-n2ccnc2)cc1` . State its measured pKa.
Response: 9.22

----------
pKa: recorded values
experiment: Partition coefficient at pH 7.4 between chloroform and water as a measure of lipid solubility.; assay type: ADME; conditions: read-out: pKa1
The reply should be a number, written without any unit.

Query: Give me measured pKa, please, for this compound: `Cc1nccn1-c1cccc(OS(N)(=O)=O)c1.Cl`
Response: 6.47

Query: Specify pKa for `Cc1cn(-c2cccc(OS(N)(=O)=O)c2)cn1.Cl` and stop.
Response: 6.09

---
Query: Answer with the recorded pKa for the compound listed here: `Cc1nccn1-c1cccc(OCCOS(N)(=O)=O)c1.Cl`
Response: 6.9

----------
# solubility per entry
assay: Intrinsic solubility of the compound; type: ADME; details: read-out: S
Kindly provide the numeric value in µg/mL only, without the unit symbol.

Reference set, count: 5
Query: Name the recorded solubility of the item `Cc1nccn1-c1cccc(OS(N)(=O)=O)c1.Cl` in your answer.
Response: 3300

Query: State its solubility for this molecule: `Cl.NS(=O)(=O)Oc1ccc(-n2ccnc2)cc1`
Response: 230

Query: Name the recorded solubility of the molecule listed here: `Cl.NS(=O)(=O)OCCOc1cccc(-n2ccnc2)c1`
Response: 250

Query: For the molecule `Cc1cn(-c2cccc(OS(N)(=O)=O)c2)cn1.Cl` , give its reported solubility.
Response: 470

Query: Note down solubility recorded for `Cc1nccn1-c1cccc(OCCOS(N)(=O)=O)c1.Cl`
Response: 1400

Next:
Query: # return recorded solubility for input `Cl.NS(=O)(=O)Oc1cccc(-n2ccnc2)c1`
Response: 11000

Query: Consider the molecule `Cc1cn(-c2cccc(OCCOS(N)(=O)=O)c2)cn1.Cl` and give its recorded solubility.
Response: 220

Query: Dear colleague, please send me the reported solubility for `Cl.NS(=O)(=O)OCCCOc1ccc(-n2ccnc2)cc1` when you can.
Response: 120

Query: Give the measured solubility for `Cl.NS(=O)(=O)OCCOc1ccc(-n2ccnc2)cc1`
Response: 700

----------
target: Carbonic anhydrase (Bos taurus, UniProt P00921+Q95323+P18915+Q3SZX4); experiment: Bovine erythrocyte carbonic anhydrase inhibitory activity of the compound.
API: label(entry) gives label 1 if the entry's IC50 is strictly smaller than 70 nM; on equality or larger values it gives label 0.

Illustrative cases are given below, each with its answer.
Query: Strictly below 70 nM: is that where IC50 of `Cl.NS(=O)(=O)Oc1cccc(-n2ccnc2)c1` sits?
Response: label 1

Query: Problem: For the compound `Cc1cn(-c2cccc(OCCOS(N)(=O)=O)c2)cn1.Cl` , is IC50 under 70 nM?
Response: label 0

Query: Report whether reported IC50 is lower than 70 nM (strictly) for `Cl.NS(=O)(=O)Oc1ccc(-n2ccnc2)cc1`
Response: label 0

New cases:
Query: Decide: IC50 of `Cl.NS(=O)(=O)OCCOc1ccc(-n2ccnc2)cc1` strictly below 70 nM?
Response: label 1

Query: Field: below-cutoff. Rule: recorded IC50 strictly less than 70 nM. Subject: `Cl.NS(=O)(=O)OCCCOc1ccc(-n2ccnc2)cc1`
Response: label 0

Query: Hello, is IC50 of the following compound strictly smaller than 70 nM? `Cc1nccn1-c1cccc(OS(N)(=O)=O)c1.Cl`
Response: label 1

Query: Does `Cc1cn(-c2cccc(OS(N)(=O)=O)c2)cn1.Cl` have IC50 strictly under 70 nM?
Response: label 0

Query: Hello, is IC50 of the following compound strictly smaller than 70 nM? `Cc1nccn1-c1cccc(OCCOS(N)(=O)=O)c1.Cl`
Response: label 0

----------
experiment: Compound was evaluated for partition coefficient at pH 7.4 (CHCl3/buffer); details: octanol/water
// Partition coefficient lookup, one value per entry
Reply briefly: the number, and no unit.

Query: For the compound `Cl.NS(=O)(=O)OCCCOc1ccc(-n2ccnc2)cc1` , report Partition coefficient.
Response: 5.5

Query: Find the measured Partition coefficient of `Cl.NS(=O)(=O)OCCOc1cccc(-n2ccnc2)c1` and report it.
Response: 2.2

***
Query: Determine from records and report Partition coefficient for `Cl.NS(=O)(=O)OCCOc1ccc(-n2ccnc2)cc1`
Response: 1.5

Query: Give me measured Partition coefficient, please, for this compound: `Cl.NS(=O)(=O)Oc1ccc(-n2ccnc2)cc1`
Response: 0.16

Query: Return the recorded Partition coefficient value; entry: `Cc1cn(-c2cccc(OS(N)(=O)=O)c2)cn1.Cl`
Response: 0.73

Query: Answer with the recorded Partition coefficient of `Cc1nccn1-c1cccc(OS(N)(=O)=O)c1.Cl` only.
Response: 0.18

Query: Tell me measured Partition coefficient for `Cl.NS(=O)(=O)Oc1cccc(-n2ccnc2)c1` please.
Response: 0.28

Query: Supply recorded Partition coefficient for `Cc1cn(-c2cccc(OCCOS(N)(=O)=O)c2)cn1.Cl` here.
Response: 4.6

Query: Fill in Partition coefficient for record `Cc1nccn1-c1cccc(OCCOS(N)(=O)=O)c1.Cl`
Response: 1.1

----------
Each entry below lists one item and its recorded solubility value.
assay: Solubility in water at pH 5.0; format: physicochemical
Answer with a number only, understood to be in µg/mL.

Query: Look up and state reported solubility for `Cl.NS(=O)(=O)OCCOc1cccc(-n2ccnc2)c1`
Response: 1500

Query: State, in one line, measured solubility of `Cc1nccn1-c1cccc(OCCOS(N)(=O)=O)c1.Cl`
Response: 114000

Query: Report measured solubility; entry is `Cl.NS(=O)(=O)Oc1ccc(-n2ccnc2)cc1`
Response: 1000

Query: Indicate the recorded solubility value for this molecule: `Cc1nccn1-c1cccc(OS(N)(=O)=O)c1.Cl`
Response: 100000

Further cases:
Query: Respond only with solubility recorded for `Cl.NS(=O)(=O)OCCOc1ccc(-n2ccnc2)cc1`
Response: 7400
